# target-system: mALDH1a2 (Mus musculus)
# Sequence (Q62148 1-518): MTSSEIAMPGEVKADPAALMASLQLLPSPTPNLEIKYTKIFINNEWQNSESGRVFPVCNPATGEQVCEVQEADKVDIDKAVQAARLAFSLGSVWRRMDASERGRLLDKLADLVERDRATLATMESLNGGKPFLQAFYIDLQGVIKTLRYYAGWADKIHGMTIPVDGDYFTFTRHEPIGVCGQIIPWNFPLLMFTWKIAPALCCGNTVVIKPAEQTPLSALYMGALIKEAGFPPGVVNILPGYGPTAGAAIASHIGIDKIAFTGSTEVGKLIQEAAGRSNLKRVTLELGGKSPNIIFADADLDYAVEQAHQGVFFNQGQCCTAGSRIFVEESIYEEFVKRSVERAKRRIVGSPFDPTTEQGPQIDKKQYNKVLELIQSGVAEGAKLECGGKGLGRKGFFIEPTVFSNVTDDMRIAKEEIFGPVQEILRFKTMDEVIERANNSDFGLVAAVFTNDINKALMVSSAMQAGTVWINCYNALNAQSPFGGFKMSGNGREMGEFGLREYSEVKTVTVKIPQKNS
# procedure-text: Aldh1a2 enzyme inhibition assay (resorufin fluorescence), mouse enzyme
# measurement-setup: recombinant enzyme, 20° C., activity level classes
pIC50: −log10 of the molar value.
reported-endpoint: pIC50

Q) Request - read-out pIC50 | tested on mALDH1a2 (Mus musculus) | compound "O=C1CCc2cc(NC(=O)c3scnc3-c3cccc(F)c3)ccc2N1"
A) 5.30 to 6.00

Q) Can you check "Cc1cc(NC(=O)c2scnc2CC(C)(C)C)cc2c1NC(=O)CC2" next?
A) 5.30 to 6.00

Working through the 3 compounds below one at a time, give pIC50 for each.
1. Cc1cc(NC(=O)c2ccccc2-c2cccc(F)c2)cc2c1NC(=O)CC2
2. CCc1scnc1C(=O)Nc1cc(Cl)c2c(c1)CCC(=O)N2
3. CCCc1ncsc1C(=O)Nc1cc(C)c2c(c1)CCC(=O)N2

A)
1: 5.30 to 6.00; 2: 5.30 to 6.00; 3: 6.00 to 6.60

Working through the 4 compounds below one at a time, give pIC50 for each.
1. O=C1CCc2cc(NC(=O)c3ccccc3-c3cccc(F)c3)cc(Cl)c2N1
2. CCc1ncsc1C(=O)Nc1cc2c(c(C)c1F)NC(=O)CC2
3. O=C1CCc2cc(NC(=O)c3ccncc3-c3ccccc3)ccc2N1
4. CCc1ncsc1C(=O)Nc1cc(Cl)c2c(c1)C1CC1C(=O)N2 (stereo not drawn) [Compound 38]

A)
["6.00 to 6.60", "6.00 to 6.60", "5.30 to 6.00", "6.60 to 7.00"]
